- System: ScSho1
- Test method notes: SPOT peptide array binding signal intensity (averaged, normalized) (arbitrary units (background-subtracted, floor 0; scale differs between SH3 domains)); higher = stronger binding of the SH3 domain to the peptide
Assay metric: SPOT peptide array binding signal intensity

Binder | Result value
GERSRPLVISILSSA | 910
KDKSRPPRPPPKPLH | 171
ILARAILTIPRVLDK | 1560
PLRRTVMSLPGNHDI | 909
